# Test system: MS2 coat protein
# PROCEDURE_DETAILS: apparent KD of MS2 coat protein; designed switch direction (-1 OFF switch, 1 ON switch): -1; higher = weaker reporter binding
# CONDITION_SET: Eterna round: R95; input ligand: none
QUANTITY_KIND: apparent KD of MS2 coat protein (nM)
# number only, unit nM dropped from output

Some entries whose results are on file:
AGUACUUACUCGAUAGUGUUAGUACAAUAAGCUUGUGAAACAUGAGGAUCACCCAUGUCCUCAUUAGCUCGUCUUAU [salish99_TOv2_r3_1006] (puzzle: Sensor v3, turn-off variant 2)
199
CGUGACUCAGGAUAUGUAUAAUAUCACAUGAGGAUCACCCAUGUCCAGCGAAAGCUGGAAGCAGAAGGGAGUCACG [Fiskers Ex 5 - 39] (puzzle: Exclusion 5)
111
CUCCUCAUGACGCCCAACCACAUGAGGAUCACCCAUGUGCAGGCUUUUUGUCGUCUUAUAAUAAAACCGAGGAUGCG [Edusveti] (puzzle: Sensor v3, turn-off variant 1)
13

// recorded apparent KD of MS2 coat protein for GAAAAGGUAGGAUAUACGAAAAAAAAGGGUAGAAAAAUAACACAUGAGGAUCACCCAUGUAGAAGGACCAAAAG [salish99_ex2_r3_074] (puzzle: Exclusion 2) : 29

// recorded apparent KD of MS2 coat protein for GUAUAACUACACGGGCUCAACAUGAGGAUCACCCAUGUCAUAUACGCAAGCUUUUUGCUUGUCUUACCUGUCCGUGA [Ariedbi] (puzzle: Sensor v3, turn-off variant 1) : 10.1

// recorded apparent KD of MS2 coat protein for ACAAGCUUUUUGCAACAAGCAUUAAACUCUCAGAUCGUAACAUGAGGAUCACCCAUGUAAGUUUUAUGACGUCUUAU [JR_SV3TOV2_Sub095] (puzzle: Sensor v3, turn-off variant 2) : 22.9

// recorded apparent KD of MS2 coat protein for AGUAACUAUCACGAAAGUGAUAGUUACAAAACAAGUGGAACAUGAGGAUCACCCAUGUCCUCAUUUGCUCGUCUUAU [Sensor 3 - 4] (puzzle: Sensor v3, turn-off variant 2) : 166

// recorded apparent KD of MS2 coat protein for ACAAAGUGAGGAUAUACUAAAACCCUCAUACCCAAAAGGGAACAUGAGGAUCACCCAUGUAGAAGGCACAUAAU [Esmainleor] (puzzle: Exclusion 2) : 92.3

// recorded apparent KD of MS2 coat protein for GAAGAAGAGAGAAUAGAAAACAUGAGGAUCACCCAUGUGAGAAGAUGAGGGUGUAAUAGGCUUUUUGCUCGUCUUAU (puzzle: Sensor v3, turn-off variant 1) : 56

// recorded apparent KD of MS2 coat protein for AGUAUGCGUGUCAGGAUAUCAAUGGCUCUACCCAAUGAGAAGGGACAUGAGGAUCACCCAUGUAUGAGCCUAAA [Zatelaveus] (puzzle: Brourd's mod of Exclusion 4) : 14.5

// recorded apparent KD of MS2 coat protein for AGAAAUGCCCAUGGCCGCAAGCUUUCUGCUUGUCUUACCACAUGAGGAUCACCCAUGUGACAUGGGCUCCUUAUAAU [Soralaer] (puzzle: Sensor v3, turn-off variant 2) : 13.2

// recorded apparent KD of MS2 coat protein for GAUUAUGCGAGCUUUAGGGACAUGAGGAUCACCCAUGUUCGUCUUAUUAGUCUGAAUACGCUGACAUACCUAAAUCU [JMF 95] (puzzle: Sensor v3, turn-off variant 1) : 19.2
